Data origin, for the record: ChEMBL document CHEMBL3885881

- Species on record: Rattus norvegicus
- test.name: DrugMatrix - Regimen: Daily Repeat
- Type: toxicity, organism-based, Sprague-Dawley
- Design: regimen Daily Repeat, gender Male, age 6-8 weeks
- condition.details: in vivo, po, 0 mg/kg, […], tissue Blood, route oral GAVAGE, dose level Control, time 28 day, vehicle .5 % CMC
property: ABSOLUTE SEGMENTED NEUTROPHIL (cells/µL)

compound | value.observed
O=c1cc(-c2ccccc2)oc2ccc3ccccc3c12 [BETA-NAPHTHOFLAVONE] | 2250
Clc1cc2c(cc1Cl)Oc1cc(Cl)c(Cl)cc1O2 [2,3,7,8-TETRACHLORODIBENZO-P-DIOXIN] | 2250
